Test system: HeLa
EXPERIMENT SUMMARY: Antiproliferative activity against human HeLa cells assessed as reduction in cell viability after 48 hrs by MTT assay
Type: functional, cell-based
MEASUREMENT KIND: IC50 (nM)

A: NC(=O)[C@H]1CCCN1C(=O)c1ccc2nc(Nc3ccc(-c4nc(N5CCOCC5)nc(N5CCOCC5)n4)cc3)[nH]c2c1
B: O=C(c1ccc2nc(Nc3ccc(-c4nc(N5CCOCC5)nc(N5CCOCC5)n4)cc3)[nH]c2c1)N1CCOCC1
C: C[C@H](NC(=O)c1ccc2nc(Nc3ccc(-c4nc(N5CCOCC5)nc(N5CCOCC5)n4)cc3)[nH]c2c1)C(N)=O
Rank the items above by IC50, largest value first. Give the order by naming the labels one after another as requested.
A, B, C
